Source: patent US20260070913A1

This section presents molecules with their documented GI50 values.
- System: Ba/F3 (N-Ras G12D)
- protocol description: Proliferation inhibitory activity, mt-NRAS (G12D) Ba/F3 cell line
- Type: cell-based
- setup conditions: Mus musculus, BaF3

| molecule | GI50 |
| --- | --- |
| CCN1CCC(c2ccc(Nc3ncc4c(n3)N(C)C(=O)N(c3cc(-c5ncc(-c6ccccc6OC)[nH]5)ccc3C)C4)cn2)CC1 [Compound No. 5] | < 0.5 µM |
| CC(=O)N1CCC(n2cc(Nc3ncc4c(n3)N(C)C(=O)N(c3cc(-c5ncc(-c6ccccc6OC(F)(F)F)[nH]5)ccc3C)C4)cn2)CC1 [Compound No. 17] | > 5 µM |
| CCN1CCC(n2cc(Nc3ncc4c(n3)N(C)C(=O)N(c3cc(-c5ncc(-c6ccccc6OC(F)(F)F)[nH]5)ccc3C)C4)cn2)CC1 [Compound No. 10] | < 0.5 µM |
| Cc1ccc(-c2ncc(-c3cccc(F)c3F)[nH]2)cc1N1Cc2cnc(NC3CC3)nc2N(C)C1=O [Compound No. 11] | 0.5 to 3 µM |
| CCN1CCN(c2ccc(Nc3ncc4c(n3)N(C)C(=O)N(c3cc(-c5ncc(-c6ccccc6OC(F)(F)F)[nH]5)ccc3C)C4)cn2)CC1 [Compound No. 16] | > 5 µM |
| COc1ccccc1-c1cnc(-c2ccc(C)c(N3Cc4cnc(Nc5ccc(N6CCN(C(C)=O)CC6)nc5)nc4N(C)C3=O)c2)[nH]1 [Compound No. 6] | < 0.5 µM |
| COc1ccccc1-c1cnc(-c2ccc(C)c(N3Cc4cnc(Nc5cnn(C6CCN(C(C)=O)CC6)c5)nc4N(C)C3=O)c2)[nH]1 [Compound No. 7] | < 0.5 µM |
| COc1ccccc1-c1cnc(-c2ccc(C)c(N3Cc4cnc(Nc5ccc(C)nc5)nc4N(C)C3=O)c2)[nH]1 [Compound No. 3] | < 0.5 µM |
| Cc1ccc(Nc2ncc3c(n2)N(C)C(=O)N(c2cc(-c4ncc(-c5ccccc5OC(F)(F)F)[nH]4)ccc2C)C3)cn1 [Compound No. 9] | < 0.5 µM |
| Cc1ccc(Nc2ncc3c(n2)N(C)C(=O)N(c2cc(-c4ncc(-c5ccccc5OC(F)(F)F)[nH]4)ccc2C)C3)c(C)n1 [Compound No. 8] | 0.5 to 3 µM |
| COc1ccccc1-c1cnc(-c2ccc(C)c(N3Cc4cnc(Nc5ccc(C)nc5C)nc4N(C)C3=O)c2)[nH]1 [Compound No. 2] | 0.5 to 3 µM |
| Cc1ccc(-c2ncc(-c3ccccc3OC(F)(F)F)[nH]2)cc1N1Cc2cnc(Nc3ccc(N4CCOCC4)cc3)nc2N(C)C1=O [Compound No. 18] | 0.5 to 3 µM |
| Cc1ccc(Nc2ncc3c(n2)N(C)C(=O)N(c2cc(-c4ncc(-c5cccc(C(F)(F)F)c5)[nH]4)ccc2C)C3)cn1 [Compound No. 13] | 3 to 5 µM |
| CC(=O)N1CCN(c2ccc(Nc3ncc4c(n3)N(C)C(=O)N(c3cc(-c5ncc(-c6ccccc6OC(F)(F)F)[nH]5)ccc3C)C4)cn2)CC1 [Compound No. 14] | 0.5 to 3 µM |
| CCN1CCC(n2cc(Nc3ncc4c(n3)N(C)C(=O)N(c3cc(-c5ncc(-c6ccccc6OC)[nH]5)ccc3C)C4)cn2)CC1 [Compound No. 4] | < 0.5 µM |
| COc1ccccc1-c1cnc(-c2ccc(C)c(N3Cc4cnc(Nc5cnn(C)c5)nc4N(C)C3=O)c2)[nH]1 [Compound No. 1] | < 0.5 µM |
| CCN1CCC(c2ccc(Nc3ncc4c(n3)N(C)C(=O)N(c3cc(-c5ncc(-c6ccccc6OC(F)(F)F)[nH]5)ccc3C)C4)cn2)CC1 [Compound No. 15] | 3 to 5 µM |
| Cc1ccc(Nc2ncc3c(n2)N(C)C(=O)N(c2cc(-c4ncc(-c5cccc(F)c5F)[nH]4)ccc2C)C3)cn1 [Compound No. 12] | 0.5 to 3 µM |
